Kindly state protein stability index for each of the entries shown.
B1: CRYL1 (parent)
chain: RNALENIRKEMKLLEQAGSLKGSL

Variants of: B1
assay: protein stability index of a GFP-peptide fusion (GPS, HEK-293T) (PSI 1-6); higher = more stable;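 also: lentivirally expressed fusions sorted by FACS into six bins by GFP to DsRed ratio, PSI derived from sequencing read proportions per bin multiplied by bin number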
appliedConditions: c terminus: a fixed tail appended
Answers are plain numbers.

Here's what some known entries look like.
- mutantName: "R1C"
  protein stability index: 2.87
- mutantName: "E10D"
  protein stability index: 3.33
- mutantName: "R8D"
  protein stability index: 4.49
- mutantName: "K21V"
  protein stability index: 2.73
- mutantName: "K9H"
  protein stability index: 2.9

Give measured protein stability index for every item shown.
1. S23A
2. S23W
3. L24P
4. A17N
5. Q16S
6. N2Q
7. L4K

2.9
1.95
3.77
3.62
2.62
3.39
3.67

Give measured protein stability index for every item shown.
1. E5D
2. Q16T
3. K12F
4. M11C
5. E5Q
6. L4F
7. G22H

3.85
3.01
2.39
3.37
3.34
2.92
2.94

Give measured protein stability index for every item shown.
1. L24N
2. N6Q
3. Q16I

1. 3.81
2. 3.03
3. 2.76
